- assayed.target: KRAS G12C (Homo sapiens, UniProt P01116, G12C)
- test.protocol: Cell Activity Assay: accumulation of GDP-bound KRAS G12C in MIAPaCa-2 cells (Raf-1 RBD capture, MSD readout)
- Assay type: cell-based
- Set-up: endogenous in cells; host or cells: MIAPaCa-2
- experimental.parameters: 6 hours, assay limit is 30.00
Can you tell me log10(IC50) for the items I'm about to list?
In our notation, the value equals log10 of IC50 in µM.

Value lookup for log10(IC50); key = C=CC(=O)N1CCN(c2nc(OC[C@@H]3CCCN3C)nc3c(Oc4c(Cl)c(C)cc5[nH]ncc45)nc(Cl)cc23)CC1 [Example 06G] -1.19

Value lookup for log10(IC50); key = C=CC(=O)N1CCN(c2nc(O[C@H]3Cc4nccn4C3)nc3c(Oc4c(C)ccc5[nH]ncc45)cccc23)CC1 [Example 08F] 0.20

Value lookup for log10(IC50); key = C=CC(=O)N1CCN(c2nc(Oc3cccc4c3CCN(C)C4)nc3c(Oc4c(Cl)c(F)cc5[nH]ncc45)nccc23)CC1 [Example 22I] -2.52

Value lookup for log10(IC50); key = C=CC(=O)N1CCN(c2nc(N3CC(N(C)C)C3)nc3c(Oc4c(Cl)c(F)cc5[nH]ncc45)nccc23)CC1 [Example 02H] -0.30

Value lookup for log10(IC50); key = C=CC(=O)N1CCN(c2nc(OC[C@@H]3CCCN3C)nc3c(Oc4c(C)c(Cl)cc5[nH]ncc45)cccc23)CC1 [Example 22E] -1.25

Value lookup for log10(IC50); key = C=CC(=O)N1CCN(c2nc(O[C@@H]3CN(C)C[C@H]3C(F)F)nc3c(Oc4c(Cl)c(F)cc5[nH]ncc45)nccc23)CC1 (single isomer, unassigned) [Example 59I] -0.91

Value lookup for log10(IC50); key = C=CC(=O)N1CCN(c2nc(OC[C@H]3CCCN3C)nc3c(Oc4c(C)ccc5[nH]ncc45)nccc23)CC1 [Example 09B] 0.49

Value lookup for log10(IC50); key = C=CC(=O)N1CCN(c2nc(O[C@@H]3CCOC3)nc3c(Oc4c(Cl)c(F)cc5[nH]ncc45)nccc23)CC1 [Example 02J] -0.21

Value lookup for log10(IC50); key = C=CC(=O)N1CCN(c2nc(N3CC(N(C)C)C3)nc3c(Oc4c(Cl)c(C)cc5[nH]ncc45)nc(C)cc23)CC1 [Example 01E] 0.38

Value lookup for log10(IC50); key = C=CC(=O)N1CCN(c2nc(O[C@@H]3CCN(C)C[C@H]3C)nc3c(Oc4c(Cl)c(F)cc5[nH]ncc45)nc(Cl)cc23)CC1 (racemic) [Example 34G] -1.20

Value lookup for log10(IC50); key = C=CC(=O)N1CCN(c2nc(O[C@@H]3CCC[C@H]3N(C)C)nc3c(Oc4c(C)ccc5[nH]ncc45)nccc23)CC1 [Example 11B] 0.69

Value lookup for log10(IC50); key = C=CC(=O)N1CCN(c2nc(OCCN(C)C)nc3c(Oc4c(Cl)c(C)cc5[nH]ncc45)cccc23)CC1 [Example 15E] -0.29

Value lookup for log10(IC50); key = C=CC(=O)N1CCN(c2ncnc3c(Oc4c(Cl)ccc5[nH]ncc45)cccc23)[C@@H](C)C1 [Example 09C] 0.46

###

Can you tell me MSRA (% modification) 5.0 μM 0.017 hr for the items I'm about to list?
- assayed.target: GDP-loaded KRAS (1-169) G12C, C51S, C80L, C118S (Homo sapiens, UniProt P01116, C118S/C51S/C80L/G12C)
- Construct: GDP-loaded KRAS (1-169) G12C, C51S, C80L, C118S
- test.protocol: Mass Spectrometry Reactivity Assay (MSRA): covalent adduct of compound and KRAS G12C, Percent Modification
- Type: binding
- experimental.parameters: 5.0 μM compound, 0.017 hr
Write the number in % without appending the unit.

Value lookup for MSRA (% modification) 5.0 μM 0.017 hr; key = C=CC(=O)N1CCN(c2nc(O[C@@H]3CN(C)C[C@H]3OC)nc3c(Oc4c(Cl)c(F)cc5[nH]ncc45)cccc23)CC1 [Example 01L] 51

Value lookup for MSRA (% modification) 5.0 μM 0.017 hr; key = C=CC(=O)N1CCN(c2nc(O[C@@H]3CN(CCOC)C[C@H]3OC)nc3c(Oc4c(Cl)c(F)cc5[nH]ncc45)nccc23)CC1 [Example 18H] 52

Value lookup for MSRA (% modification) 5.0 μM 0.017 hr; key = C=CC(=O)N1CCN(c2nc(O[C@@H]3CN(C)C[C@H]3OC)nc3c(Oc4c(Cl)c(F)cc5[nH]ncc45)nccc23)[C@H](C)C1 [Example 34I] 52

Value lookup for MSRA (% modification) 5.0 μM 0.017 hr; key = C=CC(=O)N1CCN(c2nc(O[C@@H]3CN(C)C[C@H]3OC)nc3c(Oc4c(Cl)c(Cl)cc5[nH]ncc45)nccc23)CC1 [Example 19H] 66

Value lookup for MSRA (% modification) 5.0 μM 0.017 hr; key = C=CC(=O)N1CCN(c2nc(O[C@@H]3CN(C)C[C@H]3OC)nc3c(Oc4c(Cl)c(F)cc5[nH]ncc45)nc(C)cc23)CC1 [Example 01K] 65

Value lookup for MSRA (% modification) 5.0 μM 0.017 hr; key = C=CC(=O)N1CCN(c2nc(O[C@@H]3CN(C)C[C@H]3OC)nc3c(Oc4c(C)ccc5[nH]ncc45)nccc23)CC1 [Example 28I] 11

Value lookup for MSRA (% modification) 5.0 μM 0.017 hr; key = C=CC(=O)N1CCN(c2nc(O[C@@H]3CCN(CCOC)C[C@H]3C)nc3c(Oc4c(Cl)c(F)cc5[nH]ncc45)nccc23)CC1 (racemic) [Example 27I] 15

Value lookup for MSRA (% modification) 5.0 μM 0.017 hr; key = C=CC(=O)N1CCN(c2nc(O[C@H]3CN(C)C[C@H]3C)nc3c(Oc4c(Cl)c(F)cc5[nH]ncc45)nccc23)CC1 (racemic) [Example 25I] 6

Value lookup for MSRA (% modification) 5.0 μM 0.017 hr; key = C=CC(=O)N1CCN(c2nc(Oc3cccc4c3CCN(C(C)C)C4)nc3c(Oc4c(Cl)c(F)cc5[nH]ncc45)nccc23)CC1 [Example 19I] 82

Value lookup for MSRA (% modification) 5.0 μM 0.017 hr; key = C=CC(=O)N1CCN(c2nc(O[C@@H]3CN(C)C[C@H]3OC)nc3c(Oc4c(Cl)c(F)cc5[nH]ncc45)nccc23)[C@@H](C)C1 [Example 33I] 74

Value lookup for MSRA (% modification) 5.0 μM 0.017 hr; key = C=CC(=O)N1CCN(c2nc(O[C@@H]3CN(C)C[C@H]3OC)nc3c(Oc4c(Cl)ccc5[nH]ncc45)nccc23)CC1 [Example 49I] 34

Value lookup for MSRA (% modification) 5.0 μM 0.017 hr; key = C=CC(=O)N1CCN(c2nc(O[C@@H]3CN(C)C[C@H]3OCC)nc3c(Oc4c(Cl)c(F)cc5[nH]ncc45)nccc23)CC1 [Example 18I] 35

Value lookup for MSRA (% modification) 5.0 μM 0.017 hr; key = C=CC(=O)N1CCN(c2nc(O[C@@H]3CN(C)C[C@@H]3C)nc3c(Oc4c(Cl)c(F)cc5[nH]ncc45)nc(Cl)cc23)CC1 (racemic) [Example 31G] 26

###

- assayed.target: GDP-loaded KRAS (1-169) G12C, C51S, C80L, C118S (Homo sapiens, UniProt P01116, C118S/C51S/C80L/G12C)
- Construct: GDP-loaded KRAS (1-169) G12C, C51S, C80L, C118S
- test.protocol: Mass Spectrometry Reactivity Assay (MSRA): covalent adduct of compound and KRAS G12C, Percent Modification
- Assay type: binding
- experimental.parameters: 5.0 μM compound, 0.25 hr
Category key, based on recorded MSRA (% modification) 5.0 μM 0.25 hr: low class: < 30%; middle class: ≥ 30% and < 60%; high class: ≥ 60%

Which class is correct for the following compound? C=CC(=O)N1CCN(c2nc(OC[C@@H]3C[C@@H](OC)CN3C)nc3c(Oc4c(Cl)c(F)cc5[nH]ncc45)nccc23)CC1 [Example 13H] high class

Which class is correct for the following compound? C=CC(=O)N1CCN(c2nc(OC[C@@H]3C[C@H](OC)CN3C)nc3c(Oc4c(Cl)c(F)cc5[nH]ncc45)nccc23)CC1 [Example 12H] middle class

Which class is correct for the following compound? C=CC(=O)N1CCN(c2nc(O[C@@H]3CCOC3)nc3c(Oc4c(Cl)c(F)cc5[nH]ncc45)nccc23)CC1 [Example 02J] low class

Which class is correct for the following compound? C=CC(=O)N1CCN(c2ncnc3c(Oc4c(Cl)c(F)cc5[nH]ncc45)nc(Cl)cc23)CC1 [Example 20A] high class

Which class is correct for the following compound? C=CC(=O)N1CCN(c2nc(OCCN(C)C)nc3c(Oc4c(Cl)c(C)cc5[nH]ncc45)cccc23)CC1 [Example 15E] middle class

Which class is correct for the following compound? C=CC(=O)N1CCN(c2ncnc3c(Oc4c(F)c(Cl)cc5[nH]ncc45)nc(Cl)cc23)CC1 [Example 34A] low class

Which class is correct for the following compound? C=CC(=O)N1CCN(c2ncnc3c(Oc4c(Cl)c(F)cc5[nH]ncc45)nccc23)CC1 [Example 02C] low class

Which class is correct for the following compound? C=CC(=O)N1CCN(c2nc(OC[C@@H]3CCOC3)nc3c(Oc4c(Cl)c(F)cc5[nH]ncc45)nccc23)CC1 [Example 05H] middle class

Which class is correct for the following compound? C=CC(=O)N1CCN(c2nc(OCC3CCC(=O)N3C)nc3c(Oc4c(Cl)c(F)cc5[nH]ncc45)nc(Cl)cc23)CC1 (centres unmarked) [Example 14G] high class

Which class is correct for the following compound? C=CC(=O)N1CCN(c2nc(OC3CCN(C)CC3)nc3c(Oc4c(Cl)c(F)cc5[nH]ncc45)nccc23)CC1 [Example 16I] middle class

Which class is correct for the following compound? C=CC(=O)N1CCN(c2nc(Oc3cccnc3C)nc3c(Oc4c(Cl)c(F)cc5[nH]ncc45)nccc23)CC1 [Example 14I] low class

Which class is correct for the following compound? C=CC(=O)N1CCN(c2nc(OC[C@@H]3CCCN3C)nc3c(Oc4c(Cl)ccc5[nH]ncc45)cccc23)CC1 [Example 02L] middle class

Which class is correct for the following compound? C=CC(=O)N1CCN(c2nc(N3CC(C)(C#N)C3)nc3c(Oc4c(Cl)c(F)cc5[nH]ncc45)nc(Cl)cc23)CC1 [Example 02G] high class

Which class is correct for the following compound? C=CC(=O)N1CCN(c2nc(OC[C@H]3CCCN3C)nc3c(Oc4c(C)ccc5[nH]ncc45)cccc23)CC1 [Example 06E] middle class

Which class is correct for the following compound? C=CC(=O)N1CCN(c2nc(OC[C@@]3(F)CCN(C)C3)nc3c(Oc4c(Cl)c(F)cc5[nH]ncc45)nccc23)CC1 [Example 15H] low class

Which class is correct for the following compound? C=CC(=O)N1CCN(c2nc(OCc3nncn3C)nc3c(Oc4c(C)ccc5[nH]ncc45)cccc23)CC1 [Example 07F] low class

Which class is correct for the following compound? C=CC(=O)N1CCN(c2nc(OCC3CCN(C(C)=O)C3)nc3c(Oc4c(Cl)c(F)cc5[nH]ncc45)nccc23)CC1 (centres unmarked) [Example 05J] high class

Which class is correct for the following compound? C=CC(=O)N1CCN(c2nc(OCCO)nc3c(Oc4c(Cl)c(F)cc5[nH]ncc45)nc(Cl)cc23)CC1 [Example 23G] middle class

Which class is correct for the following compound? C=CC(=O)N1CCN(c2nc(Oc3cccnc3C(C)C)nc3c(Oc4c(Cl)c(F)cc5[nH]ncc45)nccc23)CC1 [Example 05I] high class

Which class is correct for the following compound? C=CC(=O)N1CCN(c2nc(OC[C@@]3(F)CCCN(C)C3)nc3c(Oc4c(Cl)c(F)cc5[nH]ncc45)nccc23)CC1 [Example 15I] high class
